# GI50 annotations
experiment: Cytotoxicity against human renal cancer cells after 48 hrs; assay type: functional; details: Cancer cell lines

Past entries and their recorded results:
>>> result_value("COc1ccc(CN2C(=O)/C(=C/c3cc(OC)c(OC)c(OC)c3)c3cc(OC)ccc32)cc1")
"2.4 µM"
>>> result_value("COc1cc(/C=C2\\C(=O)N(C)c3ccc(Cl)cc32)cc(OC)c1OC")
"4.7 µM"

Q: Requested read-out: GI50. Entry: "COc1ccc2c(c1)/C(=C\c1cc(OC)c(OC)c(OC)c1)C(=O)N2C"
Ans: 3.2 µM

Q: Ok, now "COc1cc(/C=C2\C(=O)Nc3ccc(N(C)C)cc32)cc(OC)c1OC"
Ans: 3.8 µM

Q: Ok, now "COc1cc(/C=C2\C(=O)Nc3ccc(Br)cc32)cc(OC)c1OC"
Ans: 14.1 µM

Q: Ok, now "COc1cc(/C=C2\C(=O)Nc3cc(OC(F)(F)F)ccc32)cc(OC)c1OC"
Ans: 3.3 µM

Q: Ok, now "COc1ccc(OC)c2c1NC(=O)/C2=C\c1cc(OC)c(OC)c(OC)c1"
Ans: 4.5 µM

Q: Ok, now "COc1cc(/C=C2/C(=O)Nc3cc(C)c(O)cc32)cc(OC)c1OC"
Ans: 7.1 µM

Q: Ok, now "COc1ccc(CN2C(=O)/C(=C\c3cc(OC)c(OC)c(OC)c3)c3ccccc32)cc1"
Ans: 2 µM

Q: Ok, now "COc1cc(/C=C2/C(=O)N(C)c3ccc(O)cc32)cc(OC)c1OC"
Ans: 5.7 µM

Q: Ok, now "COc1cc(/C=C2\C(=O)N(Cc3ccc(Cl)cc3)c3ccccc32)cc(OC)c1OC"
Ans: 2.5 µM

Q: Ok, now "COc1cc(/C=C2\C(=O)Nc3cc(Cl)ccc32)cc(OC)c1OC"
Ans: 1.6 µM
